# Tested on: 5-HT2cR mRNA
# Protocol Details: Editing profile of 5-HT2cR mRNA isoforms by CE-SSCP (nested PCR) in SH-SY5Y cells; enzyme activity indexes worked out from the profile
# Format: cell-based, human
# Test Settings: Homo sapiens; SH-SY5Y, 10 micromolar, 24 hours; read-out: ENZYME ACTIVIY INDEX (% of variation) ADARII
Value Kind: activation at 10 µM (%)
Give bare numbers, in %.

Example compounds with recorded activation at 10 µM:
Cc1c(C(=O)NN2CCCCC2)nn(-c2ccc(Cl)cc2Cl)c1-c1ccc(Cl)cc1 : 1.2
CN(C)CCCC1(c2ccc(F)cc2)OCc2cc(C#N)ccc21 (centres unmarked) : 70.2
NC(=O)N1c2ccccc2C=Cc2ccccc21 [Carbamazepine] : 36.4
O=c1n(CCCN2CCN(c3cccc(Cl)c3)CC2)nc2ccccn12 : 77.7
NS(=O)(=O)Cc1noc2ccccc12 [Zonisamide] : 6.3
NC(=O)N1c2ccccc2CC(=O)c2ccccc21 [Oxcarbazepine] : -25.6

Your task in this section: give activation at 10 µM for each listed record.
1. CC(NC(C)(C)C)C(=O)c1cccc(Cl)c1 (centres unmarked)
2. CC[C@@H](C(N)=O)N1CCCC1=O
3. Nc1nnc(-c2cccc(Cl)c2Cl)c(N)n1

[out]
[34.7, -27.4, -24.3]

Answer for every listed entry: what is its activation at 10 µM? The entries follow.
1. CC1(C)O[C@@H]2[C@@H](CO[C@@]3(COS(N)(=O)=O)OC(C)(C)O[C@@H]23)O1 [Topiramate]
2. NC(=O)OCC(COC(N)=O)c1ccccc1 [Felbamate]

[out]
1. -13.5
2. -16

====

# Tested on: ADAR1a mRNA
# Protocol Details: Q-PCR of ADAR1a mRNA expression in SH-SY5Y cells
# Type: cell-based
# Test Settings: Homo sapiens, 10 micromolar, 24 hours, read-out: QPCR: RNA expresion (% of variation) ADAR1a
Label yes when % change in ADAR1a mRNA expression at 10 µM is strictly below -40%; at or above that, label no.

Here are 2 compounds together with their reported answers.
O=c1n(CCCN2CCN(c3cccc(Cl)c3)CC2)nc2ccccn12 [Trazodone] : yes
CC(NC(C)(C)C)C(=O)c1cccc(Cl)c1 (stereo not shown) [Bupropion] : yes

[in] Strictly below -40%: is that where % change in ADAR1a mRNA expression at 10 µM of NC(=O)N1c2ccccc2CC(=O)c2ccccc21 [Oxcarbazepine] sits?
[out] no

[in] In plain terms, does NC(=O)OCC(COC(N)=O)c1ccccc1 [Felbamate] come in under -40% for % change in ADAR1a mRNA expression at 10 µM?
[out] no

[in] Please check: % change in ADAR1a mRNA expression at 10 µM for NCC1(CC(=O)O)CCCCC1 [Gabapentin] , strictly under -40% or not?
[out] yes

[in] Please indicate whether the reported % change in ADAR1a mRNA expression at 10 µM of CC(C)C[C@H](CN)CC(=O)O [Pregabalin] is strictly below -40%.
[out] no

[in] Please state whether % change in ADAR1a mRNA expression at 10 µM is below -40% for NC(=O)N1c2ccccc2C=Cc2ccccc21 [Carbamazepine]
[out] no

====

Give measured % change in ADAR1a mRNA expression at 10 µM for each item. Keep answers brief.
# Test system: ADAR1a mRNA
# Protocol Details: Q-PCR of ADAR1a mRNA expression in SH-SY5Y cells
# Type: cell-based
# Test Settings: Homo sapiens, 10 micromolar, 24 hours, read-out: QPCR: RNA expresion (% of variation) ADAR1a

As a guide, the following entries are already answered.
Cc1c(C(=O)NN2CCCCC2)nn(-c2ccc(Cl)cc2Cl)c1-c1ccc(Cl)cc1 [Rimonabant] : -43%
Nc1nnc(-c2cccc(Cl)c2Cl)c(N)n1 [Lamotrigine] : -26%
CNCCCN1c2ccccc2CCc2ccccc21 [Desipramine] : 29%
CC[C@@H](C(N)=O)N1CCCC1=O [Levetiracetam] : -9%

Please report % change in ADAR1a mRNA expression at 10 µM for every entry that follows.
1. NS(=O)(=O)Cc1noc2ccccc12 [Zonisamide]
2. CC1(C)O[C@@H]2[C@@H](CO[C@@]3(COS(N)(=O)=O)OC(C)(C)O[C@@H]23)O1 [Topiramate]

[out]
1. -24%
2. -44%
